Ref: paper PMC5540273

# Test system: MAST1;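 note: KINOMEscan kinase panel screen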
# condition label: concentration: 1 μM, replicates: in singlicate; n = 1
experimental endpoint: %Inh (%)
Answer with a number only, understood to be in %.

# return recorded %Inh for entry CCn1c(-c2nonc2N)nc2c(C#CC(C)(C)O)nc(OC[C@H](N)c3ccccc3)cc21 [GSK943949] 4

# return recorded %Inh for entry CC(C)c1nc(-c2cccc(NS(=O)(=O)c3c(F)cccc3F)c2F)c(-c2ccnc(Nc3ccc(N4CCOCC4)nc3)n2)s1 [GSK2008607] 0

# return recorded %Inh for entry O=C(Nc1cccc(-c2nn3ncccc3c2-c2ccnc(Nc3ccccc3)n2)c1)c1c(F)cccc1F [GSK198271] 0

# return recorded %Inh for entry O=C(Nc1n[nH]c2cc(-c3ccoc3)ccc12)C1CC1 [SB-738481] 37

# return recorded %Inh for entry O=C(Nc1n[nH]c2nc(-c3ccc(O)cc3)ccc12)C1CC1 [SB-710363] 36

# return recorded %Inh for entry COc1cccc(C(=O)Nc2cccc(Oc3ccc4nc(NC(=O)C5CC5)cn4n3)c2)c1 0

# return recorded %Inh for entry CN1CCN(CCCNc2nccc(-c3c(-c4ccc(F)cc4)nn4cc(C(F)(F)F)ccc34)n2)CC1 [GW621581] 0

# return recorded %Inh for entry Clc1ccc(-c2nn3ncccc3c2-c2ccnc(Nc3ccc4c(c3)OCCO4)n2)cc1 [GW829116] 0

# return recorded %Inh for entry Cc1cccc(NC(=O)Nc2ccc(Oc3ncnc4ccn(C)c34)cc2)c1 0

# return recorded %Inh for entry CN(c1ccc(NC(=O)Nc2cc(C(F)(F)F)ccc2F)cc1)c1ccnc(Nc2ccc(S(N)(=O)=O)cc2)n1 [GW809893] 18

# return recorded %Inh for entry CN1CCN(Cc2cccc(-c3ccc4c(Nc5ccc(Oc6ccccc6)cc5)ccnc4c3)c2)CC1 [GW578342] 47

# return recorded %Inh for entry Cc1occc1-c1ncc(OC[C@@H](N)Cc2c[nH]c3ccccc23)cc1-c1ccc2[nH]nc(C)c2c1.O=C(O)C(F)(F)F [GSK682037] 35

# return recorded %Inh for entry COc1cc(Nc2nccc(N3CCC(NC(=O)Nc4cccc(C(C)=O)c4)C3)n2)cc(OC)c1OC (stereo not shown) [GSK1379753] 0

# return recorded %Inh for entry COC(=O)Nc1nc2cc(Oc3ccc(NC(=O)Nc4cc(C(F)(F)F)ccc4F)cn3)ccc2[nH]1.Cl.Cl [GW681170] 24

# return recorded %Inh for entry COc1ccc(-c2coc3ccc(-c4nnc(SCc5ccc(OC)c(C(F)(F)F)c5)o4)cc23)cc1 13

# return recorded %Inh for entry Cl.Cl.NCC(NC(=O)c1cc(-c2ccccc2)c(-c2ccnc3[nH]ccc23)s1)c1ccccc1 (stereo not shown) [GSK1321561] 0
